Data provenance: patent US11564919B1

- Tested on: CHIKV-GFP reporter virus
- MEASUREMENT_NOTES: microbe, parasite or virus in culture
- Format: cell-based, Chikungunya virus (CHIKV) strain 181/25
- EXPERIMENTAL_CONDITIONS: Chikungunya virus, HeLa, read-out: IC50 against CHIKV-GFP reporter virus
Hi there, I'd appreciate the recorded pIC50 for every entry that follows.
Note on units: pIC50 is unitless, being -log10 of a concentration expressed in mol/L.

Lookup: Endpoint output: pIC50 of `O=C(/C=C/c1ccc2c(c1)OCO2)N1CCN(Cc2nc(-c3ccco3)cs2)CC1` . Value?
Found: 4.96

Lookup: Endpoint output: pIC50 of Sc1nnc2c(n1)[nH]c1ccccc12 [Compound III, 5H-[1,2,4]Triazino[5,6-b]indole-3-thiol] . Value?
Found: 5.55

Lookup: Endpoint output: pIC50 of `Cn1c(=N)sc2c3ccccc3ccc21` . Value?
Found: 5.59
